# TARGET ENTITY: Corticotropin-releasing factor receptor 2/Corticotropin-releasing factor-binding protein (Homo sapiens, UniProt P24387+Q13324)
# Sequence (Q13324 whole entry): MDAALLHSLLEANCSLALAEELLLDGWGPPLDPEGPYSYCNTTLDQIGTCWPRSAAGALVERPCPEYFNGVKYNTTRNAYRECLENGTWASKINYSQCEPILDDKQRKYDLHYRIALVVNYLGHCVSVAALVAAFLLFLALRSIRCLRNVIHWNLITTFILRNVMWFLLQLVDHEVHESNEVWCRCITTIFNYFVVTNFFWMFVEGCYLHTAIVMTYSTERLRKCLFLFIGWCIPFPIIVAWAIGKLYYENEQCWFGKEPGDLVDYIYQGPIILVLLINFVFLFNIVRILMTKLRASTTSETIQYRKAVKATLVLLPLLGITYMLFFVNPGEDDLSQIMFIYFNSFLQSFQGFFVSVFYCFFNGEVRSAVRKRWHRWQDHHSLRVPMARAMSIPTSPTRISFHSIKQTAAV
# Sequence (P24387 whole entry): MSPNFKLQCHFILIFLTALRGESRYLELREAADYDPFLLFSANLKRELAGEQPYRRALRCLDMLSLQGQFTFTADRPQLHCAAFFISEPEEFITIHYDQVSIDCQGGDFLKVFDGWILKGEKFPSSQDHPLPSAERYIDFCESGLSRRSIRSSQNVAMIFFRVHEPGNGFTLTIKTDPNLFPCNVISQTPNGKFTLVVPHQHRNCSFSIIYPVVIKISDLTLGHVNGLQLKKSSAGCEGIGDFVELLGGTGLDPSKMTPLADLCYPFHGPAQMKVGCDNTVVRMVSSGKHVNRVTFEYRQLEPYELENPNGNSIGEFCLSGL
# PROTOCOL DESCRIPTION: Dose Response confirmation of uHTS hits for small molecule antagonists of the CRF-binding protein and CRF-R2 receptor complex.
# Type: functional
# CONDITION CONTEXT: read-out: IC50_Mean
Active and inactive are the calls of the source. Rule as the data show it: actives have a measured IC50 and inactives only a lower limit.
Could you please pick one outcome from this set? active, inactive

Some entries whose results are on file:
* Cc1cccc(NS(=O)(=O)c2cccc(C(=O)N3CCN(c4ccccn4)CC3)c2)c1 | inactive
* O=C(Nc1cc(S(=O)(=O)N2CCCCC2)ccc1O)c1ccccc1NS(=O)(=O)c1ccc(F)c(F)c1 | active
* COC(=O)c1cn(NC(=O)c2ccc(F)cc2)c(=O)c2ccccc12 | inactive
* Cc1ccc(S(=O)(=O)N2c3ccccc3OCC2c2ccccc2)cc1 (stereo unspecified) | active
* Cc1cc(C)cc(Nc2c(F)c(F)c(F)c(F)c2C(=O)O)c1 | active
* CCC1OC(=O)C(C)C(OC2C[C@@](C)(OC)C(O)C(C)O2)C(C)C(O[C@@H]2OC(C)CC(N(C)C)C2O)[C@](C)(O)CC(C)C(=NOCOCCOC)C(C)C(O)[C@]1(C)O (stereo partly specified) | inactive

Write down the call the test reported for this compound. Item: Cc1cccc(C)c1OCC(O)Cn1nnc2ccccc21 (stereo unspecified)
inactive

Tell me the recorded outcome of this test for CCOc1ccc(NC(=O)[C@@H](NC(=O)c2ccccc2)[C@@H](C)CC)cc1 .
inactive

Where these numbers come from: ChEMBL document CHEMBL1201862
